Quick reference: pKd of the listed items.
# ASSAYED SYSTEM: T1, EsCas13d, nuclease-dead (Eubacterium siraeum, UniProt B0MS50, R295A;H300A;R849A;H854A)
# T1 sequence: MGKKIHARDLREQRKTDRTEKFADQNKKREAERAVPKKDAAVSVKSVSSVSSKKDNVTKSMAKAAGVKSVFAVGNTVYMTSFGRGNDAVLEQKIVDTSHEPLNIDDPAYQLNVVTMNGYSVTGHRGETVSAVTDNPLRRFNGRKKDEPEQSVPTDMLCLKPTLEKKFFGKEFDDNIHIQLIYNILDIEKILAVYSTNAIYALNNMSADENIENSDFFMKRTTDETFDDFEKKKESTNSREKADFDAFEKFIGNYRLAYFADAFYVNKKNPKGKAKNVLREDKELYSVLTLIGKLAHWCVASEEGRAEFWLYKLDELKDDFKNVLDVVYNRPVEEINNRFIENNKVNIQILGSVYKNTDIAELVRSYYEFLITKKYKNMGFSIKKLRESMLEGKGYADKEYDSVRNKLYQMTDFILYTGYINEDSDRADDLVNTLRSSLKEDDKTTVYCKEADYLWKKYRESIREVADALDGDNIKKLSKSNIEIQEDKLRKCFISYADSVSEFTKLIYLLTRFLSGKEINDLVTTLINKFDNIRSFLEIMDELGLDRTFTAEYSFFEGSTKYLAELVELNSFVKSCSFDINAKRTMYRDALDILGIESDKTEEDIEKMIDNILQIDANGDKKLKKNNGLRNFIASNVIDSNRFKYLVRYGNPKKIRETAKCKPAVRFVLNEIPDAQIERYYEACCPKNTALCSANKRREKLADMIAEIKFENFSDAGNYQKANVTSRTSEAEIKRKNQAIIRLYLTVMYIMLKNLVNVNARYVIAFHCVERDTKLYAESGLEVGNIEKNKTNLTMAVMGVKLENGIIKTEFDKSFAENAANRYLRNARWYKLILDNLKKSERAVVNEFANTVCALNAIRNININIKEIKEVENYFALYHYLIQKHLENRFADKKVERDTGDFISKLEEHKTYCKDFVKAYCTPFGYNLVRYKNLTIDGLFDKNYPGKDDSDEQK
# PROTOCOL SUMMARY: crRNA (strand 1, pre-loaded); Mg2+; 40 mM Tris-HCl pH 7.5, 150 mM NaCl, 6 mM MgCl2, 1 mM DTT, 0.1% Tween-20, 0.2 mg/ml BSA; 25 C; 10 min per concentration, then washed
# CONDITION SET: tags: His6-TwinStrep-SUMO cleaved; N-terminal SNAP kept (SNAP-Surface 488); label: 3' end held by stalled T7 RNA polymerase
pKd: −log10 of the molar value.
ENDPOINT: pKd

# BINDER, ENDPOINT, RECORDED VALUE
records = [
    ("target 1 del3 (mixed) RNA 1: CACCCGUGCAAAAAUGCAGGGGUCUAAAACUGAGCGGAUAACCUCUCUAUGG RNA 2: GGGAAUGGAUCCACAUCUACGAAUUCGUACCAUAGAGAGGUUAUCCGCCACCGAGAUCGGAAGAGCACACGU", "pKd", 7.55),
    ("target 1 insG 3' of 20,insA 3' of 7 (mixed) RNA 1: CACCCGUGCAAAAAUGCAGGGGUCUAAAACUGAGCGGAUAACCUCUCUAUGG RNA 2: GGGAAUGGAUCCACAUCUACGAAUUCGUACCAGUAGAGAGGUUAUCACGCUCACCGAGAUCGGAAGAGCACACGU", "pKd", 7.58),
    ("target 1 del9,del22 (mixed) RNA 1: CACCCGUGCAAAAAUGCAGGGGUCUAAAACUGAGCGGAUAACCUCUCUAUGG RNA 2: GGGAAUGGAUCCACAUCUACGAAUUCGUACAUAGAGAGGUUUCCGCUCACCGAGAUCGGAAGAGCACACGU", "pKd", 7.16),
    ("target 1 complement block 2-10 (mixed) RNA 1: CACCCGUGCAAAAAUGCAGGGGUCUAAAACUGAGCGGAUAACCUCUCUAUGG RNA 2: GGGAAUGGAUCCACAUCUACGAAUUCGUACCAUAGAGAGGUAUAGGCGAGACCGAGAUCGGAAGAGCACACGU", "pKd", 7.88),
    ("target 1 insC 3' of 18,insA 3' of 4 (mixed) RNA 1: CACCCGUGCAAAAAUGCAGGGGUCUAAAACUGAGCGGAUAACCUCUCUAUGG RNA 2: GGGAAUGGAUCCACAUCUACGAAUUCGUACCAUACGAGAGGUUAUCCGCAUCACCGAGAUCGGAAGAGCACACGU", "pKd", 7.42),
    ("target 1 MT 5'PFS UAA 3'PFS CCG (mixed) RNA 1: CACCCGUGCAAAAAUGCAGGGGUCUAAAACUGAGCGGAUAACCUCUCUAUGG RNA 2: GGGAAUGGAUCCACAUCUACGAAUUCUAACCAUAGAGAGGUUAUCCGCUCACCGAGAUCGGAAGAGCACACGU", "pKd", 7.32),
    ("target 1 MT 5'PFS ACG 3'PFS CUG (mixed) RNA 1: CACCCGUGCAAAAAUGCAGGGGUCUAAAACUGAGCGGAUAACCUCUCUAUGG RNA 2: GGGAAUGGAUCCACAUCUACGAAUUCACGCCAUAGAGAGGUUAUCCGCUCACUGAGAUCGGAAGAGCACACGU", "pKd", 7.27),
    ("target 1 insA 3' of 15,insC 3' of 9 (mixed) RNA 1: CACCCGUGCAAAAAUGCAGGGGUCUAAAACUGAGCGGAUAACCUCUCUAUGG RNA 2: GGGAAUGGAUCCACAUCUACGAAUUCGUACCAUAGAGAAGGUUACUCCGCUCACCGAGAUCGGAAGAGCACACGU", "pKd", 8.05),
]
